- Measured On: T1, human FcRH5 protein fragment (soluble) (human, UniProt Q96RD9 16-851)
- T1 construct: whole entry named; also called soluble human FcRH5; Human FcRH5 (BIACORE analyte)
- T1 sequence: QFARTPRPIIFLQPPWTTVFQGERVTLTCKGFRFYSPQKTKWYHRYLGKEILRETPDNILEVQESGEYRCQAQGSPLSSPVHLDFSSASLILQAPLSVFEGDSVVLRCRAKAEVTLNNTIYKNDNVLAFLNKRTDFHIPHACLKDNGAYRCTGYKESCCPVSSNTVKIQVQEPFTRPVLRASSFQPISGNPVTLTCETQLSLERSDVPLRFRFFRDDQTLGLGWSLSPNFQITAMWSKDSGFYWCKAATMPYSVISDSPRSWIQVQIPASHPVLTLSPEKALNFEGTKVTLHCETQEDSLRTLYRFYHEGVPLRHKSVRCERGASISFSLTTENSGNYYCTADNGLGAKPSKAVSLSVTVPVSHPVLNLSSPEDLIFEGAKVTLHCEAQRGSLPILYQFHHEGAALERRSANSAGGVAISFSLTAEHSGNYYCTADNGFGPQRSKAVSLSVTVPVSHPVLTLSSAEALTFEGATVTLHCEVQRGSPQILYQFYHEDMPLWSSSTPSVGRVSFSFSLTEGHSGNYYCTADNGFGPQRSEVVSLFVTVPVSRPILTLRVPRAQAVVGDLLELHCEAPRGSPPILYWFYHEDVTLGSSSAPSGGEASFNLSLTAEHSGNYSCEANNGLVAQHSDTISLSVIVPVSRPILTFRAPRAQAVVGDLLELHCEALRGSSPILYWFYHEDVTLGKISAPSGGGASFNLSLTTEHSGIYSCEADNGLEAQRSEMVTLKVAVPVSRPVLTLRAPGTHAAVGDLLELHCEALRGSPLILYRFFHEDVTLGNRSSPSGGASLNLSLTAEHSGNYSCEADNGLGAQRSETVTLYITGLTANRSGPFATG
- Assay Text: BIACORE, human IgG1, soluble human FcRH5
Reported log10 of Kd by item:
Please be aware that the numbers have been log10-transformed from Kd in nM.

Some entries whose results are on file:
{"Binder": "hu1G7.v85 (hIgG1) (antibody, V domains shown, bivalent hIgG1; also called hu1G7.v1.4.M64V) VH: EVQLVESGPGLVKPSETLSLTCTVSGFSLTRFGVHWVRQPPGKGLEWLGVIWRGGSTDYNAAFVSRLTISKDNSKNQVSLKLSSVTAADTAVYYCSNHYYGSSDYALDNWGQGTLVTVSS VL: DIQMTQSPSSLSASVGDRVTITCKASQDVRNLVVWFQQKPGKAPKLLIYSGSYRYSGVPSRFSGSGSGTDFTLTISSLQPEDFATYYCQQHYSPPYTFGQGTKVEIK", "log10 of Kd": -0.10}
{"Binder": "1G7.v1G (antibody, human IgG1, V domains shown, human IgG1 with the light chain of hu1G7.v1; also called G (hu1G7.v1 heavy chain M64G)) VH: EVQLVESGPGLVKPSETLSLTCTVSGFSLTRFGVHWVRQPPGKGLEWLGVIWRGGSTDYNAAFGSRLTISKDNSKNQVSLKLSSVTAADTAVYYCSNHYYGSSDYALDNWGQGTLVTVSS VL: DIQMTQSPSSLSASVGDRVTITCKASQDVSNIVVWFQQKPGKSPKLLIYSASYRYTGVPSRFSGSGSGTDFTLTISSLQPEDFATYYCQQHYSSPYTFGQGTKVEIK", "log10 of Kd": 1.16}
{"Binder": "1G7.v1J (antibody, human IgG1, V domains shown, human IgG1 with the light chain of hu1G7.v1; also called J (hu1G7.v1 heavy chain K81M)) VH: EVQLVESGPGLVKPSETLSLTCTVSGFSLTRFGVHWVRQPPGKGLEWLGVIWRGGSTDYNAAFMSRLTISKDNSKNQVSLMLSSVTAADTAVYYCSNHYYGSSDYALDNWGQGTLVTVSS VL: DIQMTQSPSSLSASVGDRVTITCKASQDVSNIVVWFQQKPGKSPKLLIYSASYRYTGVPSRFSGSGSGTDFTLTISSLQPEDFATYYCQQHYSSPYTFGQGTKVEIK", "log10 of Kd": 1.18}
{"Binder": "hu1G7.v86 (antibody, human IgG1, V domains shown, human IgG1) VH: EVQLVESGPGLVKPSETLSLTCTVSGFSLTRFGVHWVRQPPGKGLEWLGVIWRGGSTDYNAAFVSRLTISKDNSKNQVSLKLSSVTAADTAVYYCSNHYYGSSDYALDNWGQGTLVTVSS VL: DIQMTQSPSSLSASVGDRVTITCKASQDVSNLVVWFQQKPGKSPKLLIYSGSYRYSGVPSRFSGSGSGTDFTLTISSLQPEDFATYYCQQHYSPPYTFGQGTKVEIK", "log10 of Kd": 0.15}

Lab note: next binder to report on.
State the recorded log10 of Kd for this entry: 1G7.v1F (antibody, human IgG1, V domains shown, human IgG1 with the light chain of hu1G7.v1; also called F (hu1G7.v1 heavy chain A61P)) VH: EVQLVESGPGLVKPSETLSLTCTVSGFSLTRFGVHWVRQPPGKGLEWLGVIWRGGSTDYNPAFMSRLTISKDNSKNQVSLKLSSVTAADTAVYYCSNHYYGSSDYALDNWGQGTLVTVSS VL: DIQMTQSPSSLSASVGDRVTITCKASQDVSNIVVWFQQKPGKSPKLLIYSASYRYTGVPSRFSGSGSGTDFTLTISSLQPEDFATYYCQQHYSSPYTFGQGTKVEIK
1.07
